Test: in vivo
Conditions: sheep, iv
No end group written: not given here.
metricName: half-life

Fill in the blank: the reported half-life of LHLAFLGGRS [BNPsp(17-26), LHLAFLGGRS] is ____. < 1 min
